assay: Caco-2 permeability assay (CacoReady kit); type: in vitro ADME; details: human, Caco-2, Caco-2 barrier, CacoReady kit; above 1×10^−6 cm/s classified as permeable

molecule	Papp
CNC(=O)C(=O)CC[C@H](NC(=O)c1ccc2c(c1)CC(=O)NC2)C(=O)Nc1cccn(CC(=O)NC2(C(=O)O)C3CC4CC2CC(C(F)(F)F)(C4)C3)c1=O (stereo partly drawn)	< 1 ×10⁻⁶ cm/s
CNC(=O)C(=O)CC[C@H](NC(=O)c1sc(-c2ccccc2)nc1C)C(=O)Nc1cccn(CC(=O)NC2C3CC4CC(C3)CC2C4)c1=O (stereo partly drawn)	< 1 ×10⁻⁶ cm/s
CNC(=O)C(=O)CC[C@H](NC(=O)c1nn[nH]n1)C(=O)Nc1cccn(CC(=O)NC2C3CC4CC(C3)CC2C4)c1=O (stereo partly drawn)	< 1 ×10⁻⁶ cm/s
CNC(=O)C(=O)CC[C@H](NC(=O)c1snnc1C)C(=O)Nc1cccn(CC(=O)N[C@@H]2C[C@H]3CC[C@@H]2C3)c1=O	< 1 ×10⁻⁶ cm/s
C=CCNC(=O)C(=O)CC[C@H](NC(=O)c1oc2ccccc2c1C)C(=O)Nc1cccn(CC(=O)NC2C3CC4CC(C3)CC2C4)c1=O (stereo partly drawn)	1 to 10 ×10⁻⁶ cm/s
CNC(=O)C(=O)CC[C@H](NC(=O)c1cncnc1C)C(=O)Nc1cccn(CC(=O)NC2C3CC4CC2CC(C(=O)O)(C4)C3)c1=O (stereo partly drawn)	< 1 ×10⁻⁶ cm/s

====

test: logD by shake flask method (octanol / PBS pH 7.4, HPLC); format: physicochemical; details: octanol / PBS pH 7.4, shake flask
Measured logD, listed per entry.

compound	logD
CNC(=O)C(=O)CC[C@H](NC(=O)c1coc(C(C)=O)n1)C(=O)Nc1cccn(CC(=O)NC23CC(C2)C3)c1=O	< 1
CNC(=O)C(=O)CC[C@H](NC(=O)c1nccc2cnccc12)C(=O)Nc1cccn(CC(=O)NC23CCC(C2)C3)c1=O	< 1
CNC(=O)C(=O)CC[C@H](NC(=O)c1nc(C)c(C)s1)C(=O)Nc1cccn(CC(=O)NC2C3CC4CC(C3)CC2C4)c1=O (stereo partly drawn)	3 to 5
CNC(=O)C(=O)CC[C@H](NC(=O)c1c[nH]cc1C(C)(C)C)C(=O)Nc1cccn(CCC23CC4CC(CC(C4)C2)C3)c1=O	3 to 5
CNC(=O)C(=O)CC[C@H](NC(=O)c1coc2ccccc12)C(=O)Nc1cccn(CC(=O)NC2C3CC4CC(C3)CC2C4)c1=O (stereo partly drawn)	1 to 3
CNC(=O)C(=O)CC[C@H](NC(=O)c1oc2ccccc2c1C)C(=O)Nc1cccn(CC(=O)N[C@@H]2C[C@H]3CC[C@]2(C)C3(C)C)c1=O	3 to 5

====

assay: Caco-2 permeability assay (CacoReady kit); type: in vitro ADME; conditions: human, Caco-2, Caco-2 barrier, CacoReady kit; above 1×10^−6 cm/s classified as permeable

molecule	Papp
CNC(=O)C(=O)CC[C@H](NC(=O)c1cc(Br)cs1)C(=O)Nc1cccn(CC(=O)NC2C3CC4CC(C3)CC2C4)c1=O (stereo partly shown)	< 1 ×10⁻⁶ cm/s
CNC(=O)C(=O)CC[C@H](NC(=O)c1csnn1)C(=O)Nc1cccn(CC(=O)NC23CC(C2)C3)c1=O	< 1 ×10⁻⁶ cm/s
CCn1c(C(=O)N[C@@H](CCC(=O)C(=O)NC2CCCCC2)C(=O)Nc2cccn(CC(=O)NC34CC(C3)C4)c2=O)cc2ccccc21	1 to 10 ×10⁻⁶ cm/s
CNC(=O)C(=O)CC[C@H](NC(=O)c1oc2ccccc2c1C)C(=O)Nc1cccn(CC(=O)NC23CC(C2)C3)c1=O	1 to 10 ×10⁻⁶ cm/s
CNC(=O)C(=O)CC[C@H](NC(=O)c1oc2ccccc2c1C)C(=O)Nc1cccn(CC(=O)NC23CCCC4CC(CCC42)C3)c1=O (stereo partly shown)	1 to 10 ×10⁻⁶ cm/s
CNC(=O)C(=O)CC[C@H](NC(=O)[C@@H]1CCCNC1)C(=O)Nc1cccn(CC(=O)NC2C3CC4CC(C3)CC2C4)c1=O (stereo partly shown)	< 1 ×10⁻⁶ cm/s
CNC(=O)C(=O)CC[C@H](NC(=O)c1oc2ccccc2c1C)C(=O)Nc1cccn(CC(=O)NC2CC3CCC2CC3)c1=O (stereo partly shown)	1 to 10 ×10⁻⁶ cm/s

====

Overview of recorded Papp for various compounds
experiment: Caco-2 permeability assay (CacoReady kit); type: in vitro ADME; conditions: human, Caco-2, Caco-2 barrier, CacoReady kit; above 1×10^−6 cm/s classified as permeable

compound	Papp
CNC(=O)C(=O)CC[C@H](NC(=O)c1cncn1C)C(=O)Nc1cccn(CC(=O)NC23CC4CC(C)(CC(C)(C4)C2)C3)c1=O [II-210]	< 1 ×10⁻⁶ cm/s
CNC(=O)C(=O)CC[C@H](NC(=O)c1cc2ccccc2o1)C(=O)Nc1cccn(CC(=O)NC2C3CCCC2CC3)c1=O (stereo partly shown) [II-171]	1 to 10 ×10⁻⁶ cm/s
CNC(=O)C(=O)CC[C@H](NC(=O)c1csc(Br)c1)C(=O)Nc1cccn(CC(=O)NC2C3CC4CC(C3)CC2C4)c1=O (stereo partly shown) [II-30]	1 to 10 ×10⁻⁶ cm/s
CNC(=O)C(=O)CC[C@H](NC(=O)c1nc(Cl)sc1C)C(=O)Nc1cccn(CC(=O)NC2C3CC4CC(C3)CC2C4)c1=O (stereo partly shown) [II-31]	1 to 10 ×10⁻⁶ cm/s
CNC(=O)C(=O)CC[C@H](NC(=O)c1oc2ccccc2c1C)C(=O)Nc1cccn(CC(=O)NC23CCC(CC2)C3)c1=O [II-95]	1 to 10 ×10⁻⁶ cm/s
CNC(=O)C(=O)CC[C@H](NC(=O)[C@H]1CCNC1)C(=O)Nc1cccn(CC(=O)NC2C3CC4CC(C3)CC2C4)c1=O (stereo partly shown) [II-55]	< 1 ×10⁻⁶ cm/s
CNC(=O)C(=O)CC[C@H](NC(=O)c1cc2c(F)c(F)ccc2[nH]1)C(=O)Nc1cccn(CC(=O)NC2C3CC4CC(C3)CC2C4)c1=O (stereo partly shown) [II-10]	< 1 ×10⁻⁶ cm/s

====

test: logD by shake flask method (octanol / PBS pH 7.4, HPLC); assay type: physicochemical; settings: octanol / PBS pH 7.4, shake flask
Catalogue of logD values

compound	logD
CNC(=O)C(=O)CC[C@H](NC(=O)c1oc(Br)cc1C)C(=O)Nc1cccn(CC(=O)NC2C3CC4CC(C3)CC2C4)c1=O (stereo partly drawn) [II-25]	1 to 3
CNC(=O)C(=O)CC[C@H](NC(=O)c1csc(Cl)c1)C(=O)Nc1cccn(CC(=O)NC2C3CC4CC(C3)CC2C4)c1=O (stereo partly drawn) [II-27]	1 to 3
CNC(=O)C(=O)CC[C@H](NC(=O)c1oc2ccccc2c1C)C(=O)Nc1cccn(CC(=O)NCC23CC4CC(CC(C4)C2)C3)c1=O [II-87]	3 to 5
CNC(=O)C(=O)CC[C@H](NC(=O)c1sc(C(F)(F)F)nc1C)C(=O)Nc1cccn(CC(=O)N[C@@H]2C[C@H]3CC[C@@H]2C3)c1=O [II-129]	1 to 3
CNC(=O)C(=O)CC[C@H](NC(=O)c1cc2c(F)c(F)ccc2[nH]1)C(=O)Nc1cccn(CC(=O)NC2C3CC4CC(C3)CC2C4)c1=O (stereo partly drawn) [II-10]	3 to 5
CNC(=O)C(=O)CC[C@H](NC(=O)c1cc(Br)sc1Br)C(=O)Nc1cccn(CC(=O)NC2C3CC4CC(C3)CC2C4)c1=O (stereo partly drawn) [II-29]	3 to 5

====

biological target: recombinant human transglutaminase 2 (Homo sapiens); construct: purchased Zedira T022; experiment: Transglutaminase assay (DCC-assay): incorporation of dansylcadaverine into dimethylcasein; type: biochemical; conditions: recombinant human TG2 10 nM; dansylcadaverine incorporation into dimethylcasein; read-out: IC50 TG2
Sequence (P21980 whole entry): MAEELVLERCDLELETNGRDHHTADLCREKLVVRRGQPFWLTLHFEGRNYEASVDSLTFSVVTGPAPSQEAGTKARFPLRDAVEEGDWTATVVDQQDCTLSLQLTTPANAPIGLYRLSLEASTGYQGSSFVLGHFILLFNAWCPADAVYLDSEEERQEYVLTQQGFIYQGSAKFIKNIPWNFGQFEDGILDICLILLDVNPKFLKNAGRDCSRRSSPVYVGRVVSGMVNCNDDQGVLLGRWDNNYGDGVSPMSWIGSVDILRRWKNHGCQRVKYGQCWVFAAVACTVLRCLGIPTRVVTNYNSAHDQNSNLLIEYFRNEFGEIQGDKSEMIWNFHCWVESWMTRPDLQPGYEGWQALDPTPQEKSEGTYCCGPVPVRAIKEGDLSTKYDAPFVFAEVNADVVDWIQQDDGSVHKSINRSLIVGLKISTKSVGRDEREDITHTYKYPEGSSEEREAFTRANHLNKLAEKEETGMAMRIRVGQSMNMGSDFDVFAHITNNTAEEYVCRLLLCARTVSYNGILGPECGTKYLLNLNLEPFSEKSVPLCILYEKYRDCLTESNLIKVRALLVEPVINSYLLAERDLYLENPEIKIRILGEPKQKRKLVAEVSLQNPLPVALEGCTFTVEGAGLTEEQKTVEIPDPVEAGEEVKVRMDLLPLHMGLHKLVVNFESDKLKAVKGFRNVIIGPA
pIC50: −log10 of the molar value.
reported.metric: pIC50

compound	measured
Cc1nc2ncccc2cc1C(=O)N[C@@H](CCC(=O)C(=O)NC1CCCCC1)C(=O)Nc1cccn(CC(=O)NC23CC(C2)C3)c1=O [II-184]	5.60 to 6.40
CNC(=O)C(=O)CC[C@H](NC(=O)c1c(C)noc1C)C(=O)Nc1cccn(CC(=O)NC2C3CCCC2CC3)c1=O (some centres unmarked) [II-172]	6.40 to 7.40
CNC(=O)C(=O)CC[C@H](NC(=O)c1oc2ccccc2c1C)C(=O)Nc1cccn(CC(=O)N[C@@H]2C[C@H]3CC[C@@H]2C3)c1=O [II-94]	> 7.40
CNC(=O)C(=O)CC[C@H](NC(=O)c1sc(Br)nc1C)C(=O)Nc1cccn(CC(=O)NC2C3CC4CC(C3)CC2C4)c1=O (some centres unmarked) [II-14]	> 7.40
CNC(=O)C(=O)CC[C@H](NC(=O)c1cnn(C)c1)C(=O)Nc1cccn(CC(=O)NC2C3CC4CC(C3)CC2C4)c1=O (some centres unmarked) [II-139]	5.60 to 6.40
CNC(=O)C(=O)CC[C@H](NC(=O)c1scc(C)c1Cl)C(=O)Nc1cccn(CC(=O)NC2C3CC4CC(C3)CC2C4)c1=O (some centres unmarked) [II-43]	5.60 to 6.40
CNC(=O)C(=O)CC[C@H](NC(=O)c1c[nH]c(C(N)=O)c1)C(=O)Nc1cccn(CC(=O)NC23CC(C2)C3)c1=O [II-192]	5.60 to 6.40
CNC(=O)C(=O)CC[C@H](NC(=O)c1cc(C#N)cn1C)C(=O)Nc1cccn(CCCC23CC4CC(CC(C4)C2)C3)c1=O [II-165]	5.60 to 6.40
CNC(=O)C(=O)CC[C@H](NC(=O)c1snnc1C(C)C)C(=O)Nc1cccn(CC(=O)NC2C3CC4CC(C3)CC2C4)c1=O (some centres unmarked) [II-203]	6.40 to 7.40
CNC(=O)C(=O)CC[C@H](NC(=O)c1cncn1C)C(=O)Nc1cccn(CC(=O)NC23CC4CC(CC(C4)C2)C3)c1=O [II-207]	6.40 to 7.40
CNC(=O)C(=O)CC[C@H](NC(=O)c1oc2ccccc2c1C)C(=O)Nc1cccn(CC(=O)NC2C3CC4CC(C3)CC2C4)c1=O (some centres unmarked) [II-3]	> 7.40
CNC(=O)C(=O)CC[C@H](NC(=O)c1oc2ccccc2c1C)C(=O)Nc1cccn(CC(=O)NC2(C(=O)OC)C3CC4CC(C3)CC2C4)c1=O (some centres unmarked) [II-74]	5.60 to 6.40
CNC(=O)C(=O)CC[C@H](NC(=O)c1snnc1C)C(=O)Nc1cccn(CC(=O)N[C@@H]2C[C@@H]3CC[C@H]2C3)c1=O [II-156]	6.40 to 7.40
Cc1c(C(=O)N[C@@H](CCC(=O)C(=O)NC2CC2)C(=O)Nc2cccn(CC(=O)NC3C4CC5CC(C4)CC3C5)c2=O)oc2ccccc12 (some centres unmarked) [II-115]	6.40 to 7.40
CNC(=O)C(=O)CC[C@H](NC(=O)c1cn[nH]n1)C(=O)Nc1cccn(CC(=O)NC2C3CC4CC(C3)CC2C4)c1=O (some centres unmarked) [II-132]	5.60 to 6.40
CNC(=O)C(=O)CC[C@H](NC(=O)c1cc2c(Br)cccc2o1)C(=O)Nc1cccn(CC(=O)NC2C3CC4CC(C3)CC2C4)c1=O (some centres unmarked) [II-5]	> 7.40
CNC(=O)C(=O)CC[C@H](NC(=O)c1nccn1C)C(=O)Nc1cccn(CC(=O)NC[C@@H]2CC[C@H]3C[C@@H]2C3(C)C)c1=O [II-208]	5.60 to 6.40
CNC(=O)C(=O)CC[C@H](NC(=O)c1oc2ccccc2c1Cl)C(=O)Nc1cccn(CC(=O)NC2C3CC4CC(C3)CC2C4)c1=O (some centres unmarked) [II-4]	> 7.40
CNC(=O)C(=O)CC[C@H](NC(=O)c1oc2ccccc2c1C)C(=O)Nc1cccn(CC2C3CC4CC(C3)CC2C4)c1=O (some centres unmarked) [II-110]	6.40 to 7.40
CCc1nnsc1C(=O)N[C@@H](CCC(=O)C(=O)NC)C(=O)Nc1cccn(CC(=O)NC2C3CC4CC(C3)CC2C4)c1=O (some centres unmarked) [II-204]	6.40 to 7.40
CNC(=O)C(=O)CC[C@H](NC(=O)c1ccc(Cl)s1)C(=O)Nc1cccn(CC(=O)NC2C3CC4CC(C3)CC2C4)c1=O (some centres unmarked) [II-24]	6.40 to 7.40
CNC(=O)C(=O)CC[C@H](NC(=O)c1nc(Cl)sc1Cl)C(=O)Nc1cccn(CC(=O)NC2C3CC4CC(C3)CC2C4)c1=O (some centres unmarked) [II-32]	6.40 to 7.40
O=C(Cn1cccc(NC(=O)[C@H](CCC(=O)C(=O)Nc2ccccc2)NC(=O)c2cc3ccccc3o2)c1=O)NC1C2CC3CC(C2)CC1C3 (some centres unmarked) [II-122]	5.60 to 6.40
CNC(=O)C(=O)CC[C@H](NC(=O)c1c[nH]cc1C(C)(C)C)C(=O)Nc1cccn(CCC23CC4CC(CC(C4)C2)C3)c1=O [II-164]	5.60 to 6.40
Cc1c(C(=O)N[C@@H](CCC(=O)C(N)=O)C(=O)Nc2cccn(CC(=O)N[C@@H]3C[C@H]4CC[C@@H]3C4)c2=O)oc2ccccc12 [II-147]	> 7.40
C=CCNC(=O)C(=O)CC[C@H](NC(=O)c1cc2ccccc2o1)C(=O)Nc1cccn(CC(=O)NC2C3CC4CC(C3)CC2C4)c1=O (some centres unmarked) [II-119]	6.40 to 7.40
